target: human TGFßRII (antigen of the Octet experiments) (human, UniProt P37173 23-166)
Sequence (P37173 23-166): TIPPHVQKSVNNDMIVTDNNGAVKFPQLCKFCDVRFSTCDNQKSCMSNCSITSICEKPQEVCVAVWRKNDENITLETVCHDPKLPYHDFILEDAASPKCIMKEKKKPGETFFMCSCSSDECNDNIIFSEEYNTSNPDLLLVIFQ
Reported Metric: Kd (nM)
Provide the reading as a plain figure in nM.

State the recorded Kd for this entry: XENP34288 H1.1 L1 (antibody, V domains shown) VH: QLQVQESGPGLVKPSETLSLTCTVSGGSISNSYFSWGWIRQPPGKGLEWIGSFYYGEKTYYNPSLKSRATISIDTSKSQFSLKLSSVTAADTAVYYCPRGPTVIRGVIDSWGQGTLVTVSS VL: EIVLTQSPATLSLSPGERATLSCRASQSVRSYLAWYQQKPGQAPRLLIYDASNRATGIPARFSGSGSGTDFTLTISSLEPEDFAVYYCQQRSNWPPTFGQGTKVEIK
4.26

State the recorded Kd for this entry: XENP36178 H1.195 L1 (antibody, V domains shown) VH: QLQVQESGPGLVKPSETLSLTCTVSGGSISTSYFSWGWIRQPPGKGLEWIGSFYYGGKTYYNPSLKSRATISIDTSKNQFSLKLSSVTAADTAVYYCARGPTVIRGVIDSWGQGTLVTVSS VL: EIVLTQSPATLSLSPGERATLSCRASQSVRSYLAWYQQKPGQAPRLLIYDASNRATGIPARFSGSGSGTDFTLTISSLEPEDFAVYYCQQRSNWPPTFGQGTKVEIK
8.42

State the recorded Kd for this entry: XENP36169 H1.186 L1 (antibody, V domains shown) VH: QLQVQESGPGLVKPSETLSLTCTVSGGSISESYFSWGWIRQPPGKGLEWIGSFYYGGKTYYNPSLKSRATISIDTSKNQFSLKLSSVTAADTAVYYCARGPTTIRGVIDSWGQGTLVTVSS VL: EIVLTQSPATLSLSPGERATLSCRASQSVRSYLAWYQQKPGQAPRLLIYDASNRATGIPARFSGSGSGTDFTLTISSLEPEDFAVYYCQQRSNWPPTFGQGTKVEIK
10.1
